In this section, each of the compounds is paired with its reported inhibition in vivo at 10 mg/kg.
Tested on: withdrawal reflex of the rat tail (tail flick) in response to a radiant heat beam
experimentSummary: Low-intensity tail flick test (rat)
Type: in vivo
assaySetup: po, peroral, dose 10.00 mg/kg, read-out: Low intensity tail flick, rat, peroral, % MPE (dose [mg/kg])
Answer with a number only, understood to be in %.

Worked cases, answers included:
                                   compound                             assayedtarget  unitofmeasurement  measuredvalue
0  Cc1c(C(=O)NCc2cccc(F)c2)c(C(C)C)nc2cc(C(F)(F)F)ccc12 [Example 8]  withdrawal reflex of the rat tail (tail flick) in response to a radiant heat beam                  %             65
1  COCc1nc2cc(C(F)(F)F)ccc2c(C)c1C(=O)NCc1cccc(F)c1 [Example 15]  withdrawal reflex of the rat tail (tail flick) in response to a radiant heat beam                  %              9
2  Cc1c(C(=O)NCc2ccc(F)cc2)c(C2CC2)nc2cc(C(F)(F)F)ccc12 [Example 9]  withdrawal reflex of the rat tail (tail flick) in response to a radiant heat beam                  %             15
3  CCCc1nc2cc(C(F)(F)F)ccc2c(C)c1C(=O)NCc1ccc(F)cc1 [Example 3]  withdrawal reflex of the rat tail (tail flick) in response to a radiant heat beam                  %             51
4  Cc1c(C(=O)NCc2ccc(F)cc2)c(C(C)C)nc2cc(C(F)(F)F)ccc12 [Example 7]  withdrawal reflex of the rat tail (tail flick) in response to a radiant heat beam                  %             54

Turning now to a further record.
query: Look up inhibition in vivo at 10 mg/kg with withdrawal reflex of the rat tail (tail flick) in response to a radiant heat beam for this compound: COCc1nc2cc(C(F)(F)F)ccc2c(C)c1C(=O)NCc1ccc(F)cc1 [Example 16]
result: 21
